- System: human liver microsomes, compound remaining, LC-MS
- Experiment description: human microsomal compound turnover – biochemical, with and without NADPH, LC-MS, set 2, ADME assay (AID 624452);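 note: compound left measured after 60 min microsomal incubation at 37 °C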
- Recorded conditions: measured here: stability without NADPH control; at 1 µM
percent remaining without NADPH strictly less than 70% = 1.0. Otherwise 0.0.

Record excerpt, results attached:
> print(dat)
                                   molecule  assigned.label
1  Cc1ccc(N2CCN(S(=O)(=O)N3CCCCC3)CC2)c(C)c1             0.0
2  CN(C)c1oc(-c2ccc(OCc3ccc(Cl)cc3)cc2)nc1C#N             1.0

Input CCOc1ccc(NC(=S)N2CCC(C(O)(c3ccccc3)c3ccccc3)CC2)cc1 ; condition: percent remaining without NADPH strictly below 70%. Does it hold?
1.0

Input O=c1[nH]c(SCc2ccc(Cl)cc2)nc2c1CCC2 ; condition: percent remaining without NADPH strictly below 70%. Does it hold?
0.0

Input N#C/C(=C\c1ccc([N+](=O)[O-])o1)c1nc2ccccc2[nH]1 ; condition: percent remaining without NADPH strictly below 70%. Does it hold?
1.0

Input O=C1NCCCc2c1oc1ccc(O)cc21 ; condition: percent remaining without NADPH strictly below 70%. Does it hold?
1.0

Input O=c1oc2c(O)c(O)cc3c(=O)oc4c(O)c(O)cc1c4c23 ; condition: percent remaining without NADPH strictly below 70%. Does it hold?
0.0

Input Cc1ccccc1N1CCN(c2ncnc3c2cnn3Cc2ccc(Cl)cc2)CC1 ; condition: percent remaining without NADPH strictly below 70%. Does it hold?
1.0

Input COc1ccc(C2c3c(ncn(CCN4CCOCC4)c3=N)Oc3ccc4ccccc4c32)cc1OC (stereo unspecified) ; condition: percent remaining without NADPH strictly below 70%. Does it hold?
0.0

Input CCc1nnc(NC(=O)c2ccc(NS(=O)(=O)c3ccccc3)cc2)s1 ; condition: percent remaining without NADPH strictly below 70%. Does it hold?
0.0

Input CSc1nc(-c2ccc(C)cc2)nc(C(Cl)Cl)n1 ; condition: percent remaining without NADPH strictly below 70%. Does it hold?
1.0

Input O=S(=O)(NC1CCCCC1N1CCOCC1)c1ccc(Cl)cc1 (stereo unspecified) ; condition: percent remaining without NADPH strictly below 70%. Does it hold?
0.0

Input O=C(COc1ccccc1Br)NCCc1nc2ccccc2[nH]1 ; condition: percent remaining without NADPH strictly below 70%. Does it hold?
0.0

Input Cc1ccc(-n2c(N)c(C#N)c(-c3ccccc3)c(C#N)c2=O)cc1 ; condition: percent remaining without NADPH strictly below 70%. Does it hold?
0.0

Input Cc1ccc(C(=O)n2c3ccccc3c3ccccc32)cc1 ; condition: percent remaining without NADPH strictly below 70%. Does it hold?
1.0

Input Brc1cc2c(cc1C1Nc3ccccc3C3C=CCC31)OCO2 (stereo unspecified) ; condition: percent remaining without NADPH strictly below 70%. Does it hold?
1.0

Input COc1ccc(OC)c(-c2nnc3n2N=C(c2ccc(OC)c(OC)c2)CS3)c1 ; condition: percent remaining without NADPH strictly below 70%. Does it hold?
0.0

Input Brc1ccc2c(c1)CN1CCCC1=N2 ; condition: percent remaining without NADPH strictly below 70%. Does it hold?
0.0

Input Cc1ccnc(NC(=O)CCCOc2cc(=O)n(C)c3ccccc23)c1 ; condition: percent remaining without NADPH strictly below 70%. Does it hold?
0.0
